test system: Bacillus subtilis; test: Inhibition of N-terminal LgBiT-fused Bacillus subtilis NusB expressed in Escherichia coli BL21(DE3)pLysS interaction with C- terminal SmBiT-fused Bacillus subtilis NusE expressed in Escherichia coli BL21(DE3)pLysS at 100 uM preincubated for 10 mins followed by NusE addition and measured after 10 mins by nano-glo luciferase assay relative to control
// inhibition lookup, one value per entry
metric-name: inhibition (%)

{"columns": ["smiles-input", "target-under-test", "metric-name", "meas-value"],
 "data": [
  ["CC(C)(C)c1ccccc1NCc1cc([N+](=O)[O-])ccc1O", "Bacillus subtilis", "inhibition", 72.2],
  ["O=[N+]([O-])c1ccc(O)c(/C=N/c2ccccc2O)c1", "Bacillus subtilis", "inhibition", 57.7],
  ["O=[N+]([O-])c1ccc(O)c(/C=N/c2ccc(C(F)(F)F)cc2)c1", "Bacillus subtilis", "inhibition", 68.9],
  ["C#Cc1cccc(NCc2cc(OC)ccc2O)c1", "Bacillus subtilis", "inhibition", 58.3],
  ["O=[N+]([O-])c1ccc(O)c(/C=N/c2ccc(O)cc2)c1", "Bacillus subtilis", "inhibition", 89.1],
  ["C#Cc1cccc(/N=C/c2cc(C#N)ccc2O)c1", "Bacillus subtilis", "inhibition", 61.3]
]}

----------
experiment: Cytotoxicity against human HaCaT cells assessed as reduction in cell viability after 48 to 72 hrs by MTT assay; assay type: cell-based
// log10 CC50 lookup, one value per entry
metric-name: log10 CC50 (log10 of the value in µM)

{"columns": ["smiles-input", "metric-name", "meas-value"],
 "data": [
  ["CC(C)(C)c1ccc(NCc2cc([N+](=O)[O-])ccc2O)cc1", "log10 CC50", 1.59],
  ["CC(C)(C)c1cccc(NCc2cc([N+](=O)[O-])ccc2O)c1", "log10 CC50", 1.31],
  ["O=[N+]([O-])c1ccc(O)c(CNc2ccccc2C(F)(F)F)c1", "log10 CC50", 1.26],
  ["O=[N+]([O-])c1ccc(O)c(/C=N/c2cccc(Cl)c2)c1", "log10 CC50", 2.40],
  ["O=[N+]([O-])c1ccc(O)c(/C=N/c2ccccc2Cl)c1", "log10 CC50", 2.54],
  ["C#Cc1cccc(NCc2cc([N+](=O)[O-])cc(Br)c2O)c1", "log10 CC50", 1.86],
  ["O=[N+]([O-])c1ccc(O)c(CNc2ccccc2Cl)c1", "log10 CC50", 1.30],
  ["CC(C)(C)c1ccccc1NCc1cc([N+](=O)[O-])ccc1O", "log10 CC50", 1.18],
  ["C#Cc1cccc(NCc2cc(Cl)cc(Cl)c2O)c1", "log10 CC50", 2.03]
]}

----------
tested on: Bacillus subtilis; assay: Inhibition of N-terminal LgBiT-fused Bacillus subtilis NusB expressed in Escherichia coli BL21(DE3)pLysS interaction with C- terminal SmBiT-fused Bacillus subtilis NusE expressed in Escherichia coli BL21(DE3)pLysS at 100 uM preincubated for 10 mins followed by NusE addition and measured after 10 mins by nano-glo luciferase assay relative to control
// inhibition lookup, one value per entry
metric-name: inhibition (%)

{"columns": ["smiles-input", "target-under-test", "value-units", "meas-value"],
 "data": [
  ["C#Cc1cccc(NCc2cccc([N+](=O)[O-])c2O)c1", "Bacillus subtilis", "%", 64.5],
  ["C#Cc1cccc(/N=C/c2ccccc2O)c1", "Bacillus subtilis", "%", 25.7],
  ["C#Cc1cccc(/N=C/c2cc([N+](=O)[O-])ccc2OC)c1", "Bacillus subtilis", "%", 40.4],
  ["C#Cc1cccc(NCc2ccccc2O)c1", "Bacillus subtilis", "%", 20.3],
  ["C#Cc1cccc(/N=C/c2ccc([N+](=O)[O-])cc2O)c1", "Bacillus subtilis", "%", 46.7],
  ["C#Cc1cccc(/N=C/c2cc(OC)ccc2O)c1", "Bacillus subtilis", "%", 29.3],
  ["C#Cc1cccc(NCc2cc(Cl)cc(Cl)c2O)c1", "Bacillus subtilis", "%", 50.6]
]}

----------
test system: Staphylococcus aureus; assay: Antimicrobial activity against Staphylococcus aureus HA W231 ST45 incubated for 20 hrs by microdilution method; format: functional; conditions: HA W231 ST45, 20 h
// MIC lookup, one value per entry

{"columns": ["compound", "MIC (µg/mL)"],
 "data": [
  ["O=C(O)c1cn(C2CC2)c2cc(N3CCNCC3)c(F)cc2c1=O [CIPROFLOXACIN]", 2],
  ["O=[N+]([O-])c1ccc(O)c(CNc2ccccc2Cl)c1", 4],
  ["CC(C)(C)c1ccccc1NCc1cc([N+](=O)[O-])ccc1O", 2],
  ["Cc1onc(-c2ccccc2)c1C(=O)N[C@@H]1C(=O)N2[C@@H]1SC(C)(C)[C@@H]2C(=O)O [OXACILLIN]", 4],
  ["C#Cc1cccc(NCc2cc([N+](=O)[O-])cc(Br)c2O)c1", 2],
  ["O=[N+]([O-])c1ccc(O)c(CNc2ccccc2C(F)(F)F)c1", 4],
  ["CC(C)(C)c1cccc(NCc2cc([N+](=O)[O-])ccc2O)c1", 8],
  ["CC(C)(C)c1ccc(NCc2cc([N+](=O)[O-])ccc2O)cc1", 4],
  ["O=[N+]([O-])c1ccc(O)c(CNc2cccc(Cl)c2)c1", 8]
]}

----------
test system: Staphylococcus aureus; assay: Antimicrobial activity against Staphylococcus aureus ST239 incubated for 20 hrs by microdilution method; type: functional; conditions: CN79, 20 h

{"columns": ["smiles-input", "target-under-test", "MIC"],
 "data": [
  ["O=C(O)c1cn(C2CC2)c2cc(N3CCNCC3)c(F)cc2c1=O", "Staphylococcus aureus", "4 µg/mL"],
  ["CC(C)(C)c1ccc(NCc2cc([N+](=O)[O-])ccc2O)cc1", "Staphylococcus aureus", "4 µg/mL"],
  ["O=[N+]([O-])c1ccc(O)c(CNc2ccccc2C(F)(F)F)c1", "Staphylococcus aureus", "4 µg/mL"],
  ["CC(C)(C)c1ccccc1NCc1cc([N+](=O)[O-])ccc1O", "Staphylococcus aureus", "2 µg/mL"],
  ["C#Cc1cccc(NCc2cc([N+](=O)[O-])cc(Br)c2O)c1", "Staphylococcus aureus", "4 µg/mL"],
  ["O=[N+]([O-])c1ccc(O)c(CNc2cccc(Cl)c2)c1", "Staphylococcus aureus", "16 µg/mL"]
]}

----------
assay: Cytotoxicity against human A549 cells assessed as reduction in cell viability after 48 to 72 hrs by MTT assay; assay type: cell-based
// CC50 lookup, one value per entry

{"columns": ["smiles-input", "CC50"],
 "data": [
  ["O=[N+]([O-])c1ccc(O)c(CNc2ccccc2Cl)c1", "22.5 µM"],
  ["C#Cc1cccc(NCc2cc(Cl)cc(Cl)c2O)c1", "112 µM"],
  ["O=[N+]([O-])c1ccc(O)c(/C=N/c2cccc(Cl)c2)c1", "274 µM"],
  ["CC(C)(C)c1ccc(NCc2cc([N+](=O)[O-])ccc2O)cc1", "37.2 µM"],
  ["O=[N+]([O-])c1ccc(O)c(CNc2ccccc2C(F)(F)F)c1", "20 µM"],
  ["O=[N+]([O-])c1ccc(O)c(/C=N/c2ccccc2Cl)c1", "432 µM"],
  ["CC(C)(C)c1cccc(NCc2cc([N+](=O)[O-])ccc2O)c1", "18.3 µM"],
  ["CC(C)(C)c1ccccc1NCc1cc([N+](=O)[O-])ccc1O", "13.4 µM"],
  ["C#Cc1cccc(NCc2cc([N+](=O)[O-])cc(Br)c2O)c1", "79.1 µM"]
]}

----------
// MIC lookup, one value per entry
test system: Staphylococcus aureus; test: Antimicrobial activity against Staphylococcus aureus ATCC BAA44 incubated for 20 hrs by microdilution method; type: functional; conditions: ATCC BAA44, 20 h

{"columns": ["compound", "target-under-test", "MIC"],
 "data": [
  ["O=[N+]([O-])c1ccc(O)c(CNc2ccccc2C(F)(F)F)c1", "Staphylococcus aureus", "4 µg/mL"],
  ["CC(C)(C)c1ccc(NCc2cc([N+](=O)[O-])ccc2O)cc1", "Staphylococcus aureus", "4 µg/mL"],
  ["CC(C)(C)c1cccc(NCc2cc([N+](=O)[O-])ccc2O)c1", "Staphylococcus aureus", "8 µg/mL"],
  ["C#Cc1cccc(NCc2cc([N+](=O)[O-])cc(Br)c2O)c1", "Staphylococcus aureus", "16 µg/mL"],
  ["O=[N+]([O-])c1ccc(O)c(CNc2cccc(Cl)c2)c1", "Staphylococcus aureus", "8 µg/mL"],
  ["Cc1onc(-c2ccccc2)c1C(=O)N[C@@H]1C(=O)N2[C@@H]1SC(C)(C)[C@@H]2C(=O)O [OXACILLIN]", "Staphylococcus aureus", "> 256 µg/mL"],
  ["O=C(O)c1cn(C2CC2)c2cc(N3CCNCC3)c(F)cc2c1=O [CIPROFLOXACIN]", "Staphylococcus aureus", "4 µg/mL"],
  ["CC(C)(C)c1ccccc1NCc1cc([N+](=O)[O-])ccc1O", "Staphylococcus aureus", "2 µg/mL"],
  ["O=[N+]([O-])c1ccc(O)c(CNc2ccccc2Cl)c1", "Staphylococcus aureus", "8 µg/mL"]
]}

These measurements were taken from ChEMBL document CHEMBL4364256.
